Assign GI50 to each entry below.
System: NCI-H460 lung
Assay: NCI tumour cell line growth inhibition, 48 h

Below: 2 molecules and their reported GI50.
| Structure Smiles String | Assay Endpoint | Observed Measurement |
| --- | --- | --- |
| Cc1sc2ncn(Cc3ccc(Cl)c(Cl)c3)c(=O)c2c1C | GI50 | 51.5 µM |
| COc1cc2c(cc1OC)-c1ncc3cc4c(cc3c1C2)OCO4 | GI50 | 13 µM |

Please find the next molecule below.
Prompt: What value of GI50 has been reported for the following molecule? `O=S(=O)(O)ONC1=NCCN1`
Completion: > 100 µM

----------
System: MDA-N
Test: NCI tumour cell line growth inhibition, 48 h
Assay Endpoint: TGI

Below: 5 compounds and their reported TGI.
| Compound | TGI |
| --- | --- |
| CC1=CC(=O)/C(=C/n2c(=S)[nH]c3ccccc32)C(=O)O1 | > 100 µM |
| CC1CC[C@@]2(OC1)OC1C[C@H]3[C@@H]4CCC5CC(O)CC[C@]5(C)[C@H]4C/C(=N\N(C)C)[C@]3(C)C1[C@@H]2C (some centres undefined) | 41.4 µM |
| OC(CN1CCCCC1)c1ccc(/C=C/c2ccc(Cl)cc2)cc1 (centres undefined) | > 100 µM |
| CCCCCCCCCCCCCCCCP(=O)([O-])OCC[N+](C)(C)C | 30 µM |
| O=C(Nc1cccc(C(F)(F)F)c1)c1cc(Br)cc(Br)c1O | > 10 µM |

Provide reported TGI for each item, in the same order as listed.
1. Cc1nc2c(=O)[nH]c3ccc(Cl)cc3c2o1
2. CC(=O)OCC1OC(N2C(S)=C(C#N)C(c3ccco3)C(C(C)=O)=C2c2ccccc2)C(OC(C)=O)C(OC(C)=O)C1OC(C)=O (centres undefined)
3. CCCC1(N)CC(OC)OC(C)C1O (centres undefined)

Completion:
["> 100 µM", "> 100 µM", "> 100 µM"]

Prompt: Give the reported TGI for C=CCC(SC)C1=C(C)C(=O)c2ccccc21 (centres undefined) (system: MDA-N).
Completion: > 10 µM

----------
System: RPMI-8226 leukemia
Assay: NCI tumour cell line growth inhibition, 48 h; in the data active means GI50 below about 0.43 µM; inactive means the rest
Your answer must be one of the following: YES = active, NO = inactive

Field: example entries. Status: answers known.
| Molecule | Class Name |
| --- | --- |
| C1C[OH+]CC[OH+]CC[OH+]CC[OH+]CC[OH+]CC[OH+]1.[Cl-].[Nb+5] | NO |
| C=CCCC(=O)N1C=CC(=O)[C@H](O)[C@@H]1/C=C/c1ccccc1 | NO |
| C1CC[N-]CC1.CC(=N\O)/C(C)=N/O.CC(=N\O)/C(C)=N/O.[CH2-]CCN1CCOCC1.[Co+2] | NO |
| COc1ccc(NC(=O)/C=C(C)/C=C/C=C(C)\C=C\C2=C(C)CCCC2(C)C)cc1 | NO |
| COc1c(N2CCN(Cn3c(O)c(N=NC(=O)c4ccncc4)c4cc(F)ccc43)C(C)C2)c(F)cc2c(=O)c(C(=O)O)cn(C3CC3)c12 (centres undefined) | NO |
| CCCCCCNC(=O)Oc1ccc(/C(=C(\C)c2ccccc2)c2ccc(OCCN(CC)CC)cc2)cc1 | NO |

Prompt: # outcome recorded in this test, key = `COc1cc2c(cc1OC)-c1ncc3cc4c(cc3c1C2)OCO4`
Completion: NO

Prompt: # outcome recorded in this test, key = Nc1c(C(=O)Nc2cccc(Br)c2)sc2nc3c(cc12)C(O)CCC3 (centres undefined)
Completion: YES

Prompt: # outcome recorded in this test, key = `c1ccc2nc(OCCN3CC3)ccc2c1`
Completion: NO

----------
System: COLO 205 colon
Assay: NCI tumour cell line growth inhibition, 48 h
Assay Endpoint: TGI

| Compound | Assay System | TGI |
| --- | --- | --- |
| CN(C)CCNc1nc2ccccc2c2c(=O)c3ccccc3sc12 | COLO 205 colon | 3.08 µM |
| Cc1cccc(NC2=NCCO2)c1Cl | COLO 205 colon | > 100 µM |

Prompt: What value of TGI has been reported for the following compound? CC1(C)CC2C(C1=O)C1(C)CCCC2(C)C1=O (stereo not drawn)
Completion: > 100 µM

----------
Test system: HL-60(TB) leukemia
Assay: NCI tumour cell line growth inhibition, 48 h
Assay Endpoint: TGI

Below: 5 molecules and their reported TGI.
| Molecule | Assay System | TGI |
| --- | --- | --- |
| COc1cc(-c2nn(-c3ccc(NC(=O)c4cc(Cl)cc(Cl)c4)cc3)cc2-c2ccncc2)ccc1Cl | HL-60(TB) leukemia | > 100 µM |
| O=S(=O)(O)ONC1=NCCN1 | HL-60(TB) leukemia | > 100 µM |
| OC(c1ccccc1)(c1cccnc1)C(O)(c1ccccc1)c1cccnc1 (centres undefined) | HL-60(TB) leukemia | > 100 µM |
| Cc1c(C(=O)O[C@H]2[C@@H]3[C@H](C)CC[C@H]3[C@]3(C)O[C@@]2(C2CCCCC2)C[C@H]3OC(=O)CO)ccc2ccccc12 | HL-60(TB) leukemia | 20 µM |
| O=C1OC(=O)C2C1C(c1ccccc1[N+](=O)[O-])C=C(c1ccco1)N2c1ccncc1 (centres undefined) | HL-60(TB) leukemia | 5.63 µM |

Provide reported TGI for each item, in the same order as listed.
1. COP(C)(=O)C(Cc1c[nH]c2ccccc12)NC(=O)OCc1ccccc1 (centres undefined)
2. Brc1cccc[n+]1-c1ccc2cc(-[n+]3ccccc3Br)ccc2c1
3. Cc1sc2nc3n(c(=O)c2c1C)N=C(c1ccc([N+](=O)[O-])cc1)CS3
4. O=C(Nc1cc(-c2cccnc2)nc(NCCCN2CCOCC2)n1)c1cc(Br)cc(C(F)(F)F)c1

Completion:
1. > 100 µM
2. > 100 µM
3. > 100 µM
4. 5.86 µM

Provide reported TGI for each item, in the same order as listed.
1. CC(=O)n1ccc2c(Cl)ncnc21
2. O=c1c2c3c(sc2n2c(-c4ccc(Br)cc4)nnc2n1Cc1ccccc1)CCCC3
3. COc1ccccc1NCC(=O)Nn1c(C)nc2ccc(S(=O)(=O)Nc3ccccc3OC)cc2c1=O
4. N#Cc1c2c(c(-c3cccs3)n(C3OC(CO)C(O)C(O)C3O)c1=S)CCc1ccccc1-2 (centres undefined)
5. C=C1c2nc3ccccc3n2C=C(c2ccc(OC)cc2)N1c1ccc(OCCN2CCOCC2)cc1
6. c1ccc2nc(OCCN3CC3)ccc2c1
7. NC(N)=NCC(N)C(=O)O (centres undefined)
8. COc1cc2c(c(OC)c1OC)-c1ccc(SC)cc1C(=O)CC2

Completion:
> 100 µM
77.5 µM
> 100 µM
> 84.7 µM
> 34.8 µM
34.9 µM
> 100 µM
10.8 µM

----------
System: A498 renal
Assay: NCI tumour cell line growth inhibition, 48 h
Assign TGI to each entry below.
Give bare numbers, in µM.

| Structure Smiles String | TGI (µM) |
| --- | --- |
| CN(C)c1ccc(/C=c2/c3cc([N+](=O)[O-])ccc3n3c2cc(-c2ccccc2)[n+]3C)cc1 | 7.94 |
| c1ccc2nc(OCCN3CC3)ccc2c1 | 30 |
| O=C(Nc1cc(-c2cccnc2)nc(NCCCN2CCOCC2)n1)c1cc(Br)cc(C(F)(F)F)c1 | 13.4 |

Please find the next molecule below.
Prompt: What value of TGI has been reported for the following molecule? `COc1ccc(C2=NOP(c3ccccc3)(c3ccccc3)(c3ccccc3)C2)cc1`
Completion: 89.7

----------
Assign TGI to each entry below.
Tested on: SNB-19 CNS
Experiment: NCI tumour cell line growth inhibition, 48 h

Below: 3 molecules and their reported TGI.
| Molecule | Observed Measurement |
| --- | --- |
| OCC(O)C(O)C(O)C(O)/C=N/Nc1nc(O)c(/C=C2\C=Nc3ccccc32)[nH]1 (stereo unspecified) | > 100 µM |
| CC1(C)C2CCC(N)(C2)C1O (stereo unspecified) | > 100 µM |
| CC1CN=C(c2ccc(COc3ccc(C4=NCC(C)N4)cc3)cc2)N1 (stereo unspecified) | > 100 µM |

Provide reported TGI for each item, in the same order as listed.
1. COc1ccc(C2=NOP(c3ccccc3)(c3ccccc3)(c3ccccc3)C2)cc1
2. CN(C)CCNc1nc2ccccc2c2c(=O)c3ccccc3sc12
3. CCOC(=O)/C(C#N)=C/Nc1ccc(-c2nc3ccccc3[nH]2)cc1
4. COC(=O)[C@H](CCSC)NC(=O)c1ccc(CNC(=O)/C(C)=C/c2ccccc2)cc1

Completion:
1. > 100 µM
2. 11.3 µM
3. > 100 µM
4. 58.2 µM

Provide reported TGI for each item, in the same order as listed.
1. COc1cc2c(cc1OCCCCCOc1cc3c(cc1OC)C(=O)N1CCC[C@H]1CN3)N=C[C@@H]1CCCN1C2=O
2. Cc1nnc(-c2ccc(-c3nc4ccccc4o3)cc2)o1
3. Cc1cc(O)cc2c1c(=O)c1ccccc1n2C
4. Cc1ccc(S(=O)OC23CC4CC(CC(C4)C2)C3)cc1 (stereo unspecified)
5. COCCNC1CCC2(SCCS2)c2[nH]c3ccccc3c21 (stereo unspecified)
6. CCOC(=O)CC[C@H](N)C(=O)N[C@H](Cc1ccc(N(CCCl)CCCl)cc1)C(=O)OCC

Completion:
1. > 100 µM
2. 43.1 µM
3. > 100 µM
4. > 100 µM
5. > 100 µM
6. 99 µM

Provide reported TGI for each item, in the same order as listed.
1. C[N+](C)(N)c1nc(N)c(C#N)c(C#N)c1C#N
2. COC[C@@H](Cc1ccc(OC)c(OC)c1)[C@@H](COC)Cc1ccc(OC)c(OC)c1

Completion:
> 10 µM
> 100 µM
